Reference source for all entries: ChEMBL document CHEMBL1146995

target: Retinoic acid receptor RXR-gamma (Homo sapiens, UniProt P48443)
Sequence (P48443 whole entry): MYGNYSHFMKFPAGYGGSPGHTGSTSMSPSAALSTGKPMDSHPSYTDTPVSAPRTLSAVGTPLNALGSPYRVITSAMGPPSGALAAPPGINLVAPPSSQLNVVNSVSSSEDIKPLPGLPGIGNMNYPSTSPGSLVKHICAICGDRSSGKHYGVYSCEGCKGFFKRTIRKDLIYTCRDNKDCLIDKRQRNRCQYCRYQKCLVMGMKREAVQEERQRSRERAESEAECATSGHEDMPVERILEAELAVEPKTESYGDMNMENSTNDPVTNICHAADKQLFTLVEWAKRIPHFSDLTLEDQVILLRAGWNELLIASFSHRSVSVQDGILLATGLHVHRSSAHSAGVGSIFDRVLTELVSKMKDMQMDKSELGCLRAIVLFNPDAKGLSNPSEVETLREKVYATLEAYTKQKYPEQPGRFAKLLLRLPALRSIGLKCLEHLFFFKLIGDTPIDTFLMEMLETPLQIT
method-summary: Binding affinity to RXRgamma
assay-context: read-out: Ki
pKi: −log10 of the molar value.
endpoint-name: pKi

molecule-smiles: CC(/C=C/[C@@H]1CCCN1c1ccc2c(c1)C(C)(C)CCC2(C)C)=C\C(=O)O
reading: 7.00

molecule-smiles: CC(/C=C/CN(Cc1ccccc1)c1cc(C(C)(C)C)cc(C(C)(C)C)c1)=C\C(=O)O
reading: 6.68

molecule-smiles: CCCN(C/C=C/C(C)=C/C(=O)O)c1cc(C(C)(C)C)cc(C(C)(C)C)c1
reading: 7.42

molecule-smiles: CCN(C/C=C/C(C)=C/C(=O)O)c1cc2c(cc1C)C(C)(C)CCC2(C)C
reading: 7.00

molecule-smiles: CC(/C=C/CN(C)c1cc(C(C)(C)C)cc(C(C)(C)C)c1)=C\C(=O)O
reading: 6.88

molecule-smiles: CCCN(C/C=C/C(C)=C/C(=O)O)c1ccc2c(c1)C(C)(C)CCC2(C)C
reading: 6.96

molecule-smiles: CC(/C=C/CN(c1cc(C(C)(C)C)cc2c1CCC2(C)C)C(C)C)=C\C(=O)O
reading: 6.92

molecule-smiles: CCCCCCCCN(C/C=C/C(C)=C/C(=O)O)c1cc(C(C)(C)C)cc(C(C)(C)C)c1
reading: 6.66

molecule-smiles: CCN(C/C=C/C(C)=C/C(=O)O)c1cc(C(C)(C)C)cc(C(C)(C)C)c1
reading: 7.46

###

target: Retinoic acid receptor RXR-alpha (Homo sapiens)
Sequence (P19793 whole entry): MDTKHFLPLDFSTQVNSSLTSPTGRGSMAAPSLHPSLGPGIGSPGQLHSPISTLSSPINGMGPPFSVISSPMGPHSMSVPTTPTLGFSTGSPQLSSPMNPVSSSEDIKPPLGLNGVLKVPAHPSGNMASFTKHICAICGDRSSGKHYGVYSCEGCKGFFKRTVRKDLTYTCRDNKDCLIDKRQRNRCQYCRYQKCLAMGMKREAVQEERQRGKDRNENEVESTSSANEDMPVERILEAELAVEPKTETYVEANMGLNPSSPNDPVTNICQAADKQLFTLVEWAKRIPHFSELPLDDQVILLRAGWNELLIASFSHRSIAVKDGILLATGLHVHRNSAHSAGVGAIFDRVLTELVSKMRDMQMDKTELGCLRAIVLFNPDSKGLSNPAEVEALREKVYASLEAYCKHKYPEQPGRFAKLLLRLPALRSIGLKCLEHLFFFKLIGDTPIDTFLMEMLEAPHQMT
method-summary: Binding affinity to RXRalpha
assay-context: read-out: Ki
endpoint-name: Ki (nM)

molecule-smiles: CCN(C/C=C/C(C)=C/C(=O)O)c1cc(C(C)(C)C)cc(C(C)(C)C)c1
reading: 31
--
molecule-smiles: CC(/C=C/[C@@H]1CCCN1c1ccc2c(c1)C(C)(C)CCC2(C)C)=C\C(=O)O
reading: 21
--
molecule-smiles: CCCCCCCCN(C/C=C/C(C)=C/C(=O)O)c1cc(C(C)(C)C)cc(C(C)(C)C)c1
reading: 122
--
molecule-smiles: CCN(C/C=C/C(C)=C/C(=O)O)c1cc2c(cc1C)C(C)(C)CCC2(C)C
reading: 42
--
molecule-smiles: CCN(C/C=C/C(C)=C/C(=O)O)c1ccc2c(c1)C(C)(C)CCC2(C)C
reading: 103
--
molecule-smiles: CCCN(C/C=C/C(C)=C/C(=O)O)c1cc2c(cc1OC)C(C)(C)CCC2(C)C
reading: 257
--
molecule-smiles: CC(/C=C/CNc1cc(C(C)(C)C)cc(C(C)(C)C)c1)=C\C(=O)O
reading: 529
--
molecule-smiles: CCCN(C/C=C/C(C)=C/C(=O)O)c1cc(C(C)(C)C)cc(C(C)(C)C)c1
reading: 17
--
molecule-smiles: CC(/C=C/CN(c1cc(C(C)(C)C)cc2c1CCC2(C)C)C(C)C)=C\C(=O)O
reading: 67
--
molecule-smiles: CCCN(C/C=C/C(C)=C/C(=O)O)c1cc(C(C)(C)C)cc2c1CCC2(C)C
reading: 8
--
molecule-smiles: CC(/C=C/CN(CC1CC1)c1cc(C(C)(C)C)cc2c1CCC2(C)C)=C\C(=O)O
reading: 63
--
molecule-smiles: CC(/C=C/[C@H]1CCCN1c1ccc2c(c1)C(C)(C)CCC2(C)C)=C\C(=O)O
reading: 103
--
molecule-smiles: CCCN(C/C=C/C(C)=C/C(=O)O)c1cc2c(cc1C)C(C)(C)CCC2(C)C
reading: 18
--
molecule-smiles: CCCN(C(=O)/C=C/C(C)=C/C(=O)O)c1cc(C(C)(C)C)cc(C(C)(C)C)c1
reading: 644
--
molecule-smiles: CC(/C=C/CN(Cc1ccccc1)c1cc(C(C)(C)C)cc(C(C)(C)C)c1)=C\C(=O)O
reading: 121
--
molecule-smiles: CC(/C=C/CN(C)c1cc(C(C)(C)C)cc(C(C)(C)C)c1)=C\C(=O)O
reading: 37
--
molecule-smiles: CCCN(C/C=C/C(C)=C/C(=O)O)c1ccc2c(c1)C(C)(C)CCC2(C)C
reading: 47
--
molecule-smiles: CCCCN(C/C=C/C(C)=C/C(=O)O)c1cc(C(C)(C)C)cc2c1CCC2(C)C
reading: 21
--
molecule-smiles: CC(C)=CCN(C/C=C/C(C)=C/C(=O)O)c1cc(C(C)(C)C)cc2c1CCC2(C)C
reading: 254
